# subject_of_test: SARS-CoV-2 spike receptor binding domain (RBD), antigen of Example 10 (SARS-CoV-2, UniProt P0DTC2 319-541)
quantity_name: pKd
Reminder that pKd means the negative base-10 logarithm of the concentration expressed in mol/L.

Record IMPI-054 (antibody, V domains shown) VH: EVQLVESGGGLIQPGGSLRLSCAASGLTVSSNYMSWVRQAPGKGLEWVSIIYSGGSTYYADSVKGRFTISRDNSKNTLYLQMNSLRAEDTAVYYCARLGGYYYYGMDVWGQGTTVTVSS VL: DIQMTQSPSSLSASVGERVTITCQASQDIRNYLNWYQKKPGKAPKLLIYDSSNLETGVPSRFSGSGSGTDFTFTISSLQPEDIATYYCQQYDNLPITFGQGTRLEIK , field pKd: 8.69
